Reference source: ChEMBL document CHEMBL5537213

- Test system: Astrocyte
- test-name: Cytotoxicity against mouse astrocyte cells assessed as reduction in cell viability at 128 uM incubated for 72 hrs by CyQUANT assay
- Assay type: toxicity, cell-based
For each of the compounds below, state its Activity.

Here are 3 compounds together with their reported answers.
chem-smiles	Activity
Oc1ccccc1	8%
OCc1ccccc1O	22%
Oc1cccc2ccccc12	29%

Turning to the following compound.
Task item: Quote Activity reported for `Oc1ccc2ccccc2c1` please.
Reply: 29%
